# Tested on: THRa homodimer (NR concentration 90 nM)
# TEST: PBM binding z-score (relative to random genomic background probes); higher = stronger binding; sequences stand for … in GC…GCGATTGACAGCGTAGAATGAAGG
Entries and their measured PBM binding z-score follow.

>  <INPUT_SEQUENCE>
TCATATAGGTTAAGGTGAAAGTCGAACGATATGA

>  <ASSAY_SYSTEM>
THRa homodimer (NR concentration 90 nM)

>  <PBM binding z-score>
2.71

$$$$
>  <INPUT_SEQUENCE>
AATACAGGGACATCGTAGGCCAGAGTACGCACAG

>  <ASSAY_SYSTEM>
THRa homodimer (NR concentration 90 nM)

>  <PBM binding z-score>
0.426

$$$$
>  <INPUT_SEQUENCE>
CGTCCAAGGTCAAAGGTCACTGAAGAGATGACGG

>  <ASSAY_SYSTEM>
THRa homodimer (NR concentration 90 nM)

>  <PBM binding z-score>
3.25

$$$$
>  <INPUT_SEQUENCE>
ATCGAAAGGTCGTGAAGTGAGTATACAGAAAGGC

>  <ASSAY_SYSTEM>
THRa homodimer (NR concentration 90 nM)

>  <PBM binding z-score>
0.0261

$$$$
>  <INPUT_SEQUENCE>
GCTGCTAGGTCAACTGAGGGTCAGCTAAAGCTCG

>  <ASSAY_SYSTEM>
THRa homodimer (NR concentration 90 nM)

>  <PBM binding z-score>
1.47

$$$$
>  <INPUT_SEQUENCE>
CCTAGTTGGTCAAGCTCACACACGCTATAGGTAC

>  <ASSAY_SYSTEM>
THRa homodimer (NR concentration 90 nM)

>  <PBM binding z-score>
0.545

$$$$
>  <INPUT_SEQUENCE>
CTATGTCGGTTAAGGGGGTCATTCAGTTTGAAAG

>  <ASSAY_SYSTEM>
THRa homodimer (NR concentration 90 nM)

>  <PBM binding z-score>
3.17

$$$$
>  <INPUT_SEQUENCE>
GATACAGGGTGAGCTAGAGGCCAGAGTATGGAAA

>  <ASSAY_SYSTEM>
THRa homodimer (NR concentration 90 nM)

>  <PBM binding z-score>
-0.562

$$$$
>  <INPUT_SEQUENCE>
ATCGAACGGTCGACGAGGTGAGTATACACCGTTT

>  <ASSAY_SYSTEM>
THRa homodimer (NR concentration 90 nM)

>  <PBM binding z-score>
0.292

$$$$
>  <INPUT_SEQUENCE>
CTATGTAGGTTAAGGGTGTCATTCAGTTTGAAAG

>  <ASSAY_SYSTEM>
THRa homodimer (NR concentration 90 nM)

>  <PBM binding z-score>
0.005

$$$$
>  <INPUT_SEQUENCE>
CTATGTAAGTTAAGGGGGTCATTCAGTTTGAAAG

>  <ASSAY_SYSTEM>
THRa homodimer (NR concentration 90 nM)

>  <PBM binding z-score>
2.28

$$$$
>  <INPUT_SEQUENCE>
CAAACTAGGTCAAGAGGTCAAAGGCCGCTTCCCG

>  <ASSAY_SYSTEM>
THRa homodimer (NR concentration 90 nM)

>  <PBM binding z-score>
2.35

$$$$

---

# System: PPARg:RXRa DBDmut IVT, anti-RXR (DBD mutation: RXRa K156A/R161A, NR concentration 270 nM, RXRa partner concentration 90 nM)
# TEST: PBM binding z-score (relative to random genomic background probes); higher = stronger binding; sequences stand for … in GC…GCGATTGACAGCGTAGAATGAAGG
Categorize each record by its PBM binding z-score using class 0 (below 2), class 1 (2 to below 6), class 2 (6 or more)

>  <INPUT_SEQUENCE>
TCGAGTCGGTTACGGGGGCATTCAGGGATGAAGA

>  <GROUP>
class 0

$$$$
>  <INPUT_SEQUENCE>
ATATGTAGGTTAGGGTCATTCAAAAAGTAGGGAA

>  <GROUP>
class 2

$$$$
>  <INPUT_SEQUENCE>
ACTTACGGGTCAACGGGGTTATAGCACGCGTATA

>  <GROUP>
class 1

$$$$
>  <INPUT_SEQUENCE>
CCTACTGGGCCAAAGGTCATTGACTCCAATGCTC

>  <GROUP>
class 1

$$$$
>  <INPUT_SEQUENCE>
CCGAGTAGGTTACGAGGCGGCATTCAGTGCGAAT

>  <GROUP>
class 1

$$$$
>  <INPUT_SEQUENCE>
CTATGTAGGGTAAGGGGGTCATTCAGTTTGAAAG

>  <GROUP>
class 2

$$$$
>  <INPUT_SEQUENCE>
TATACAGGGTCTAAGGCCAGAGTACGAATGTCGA

>  <GROUP>
class 0

$$$$
>  <INPUT_SEQUENCE>
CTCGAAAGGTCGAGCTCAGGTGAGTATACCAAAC

>  <GROUP>
class 0

$$$$
>  <INPUT_SEQUENCE>
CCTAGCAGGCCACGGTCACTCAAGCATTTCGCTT

>  <GROUP>
class 1

$$$$
>  <INPUT_SEQUENCE>
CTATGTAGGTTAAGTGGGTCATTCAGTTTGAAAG

>  <GROUP>
class 2

$$$$
>  <INPUT_SEQUENCE>
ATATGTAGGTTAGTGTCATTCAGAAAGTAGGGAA

>  <GROUP>
class 2

$$$$
>  <INPUT_SEQUENCE>
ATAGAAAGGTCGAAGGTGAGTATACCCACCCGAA

>  <GROUP>
class 0

$$$$

The measurements presented in this section are drawn from the supplement of paper PMC6555819.
